Origin of measurements: ChEMBL document CHEMBL3885861

# Species: Rattus norvegicus
# Assay procedure: Open TG-GATES - Regimen: Single
# Assay type: toxicity, organism-based, Sprague-Dawley
# Design: regimen Single, gender Male, age 6 weeks
# Recorded conditions: in vivo, po, 100 mg/kg, 24 h, tissue Plasma, route gavage, dose level High
I'd be grateful if you could share measured PL for these entries.
Answers are plain numbers, in mg/dL.

* CN(C)CCCN1c2ccccc2CCc2ccc(Cl)cc21 | 168.4
* CC1=C(/C=C/C(C)=C/C=C/C(C)=C/CO)C(C)(C)CCC1 | 144

I need PL for every entry listed below, if you could help.
1. CN(C)CCCN1c2ccccc2CCc2ccccc21
2. CN(C)CCN(Cc1cccs1)c1ccccn1

[137.8, 136]

====

Consider the following compounds; for each one, report its TERMINAL_BW.
# Species on record: Rattus norvegicus
# Assay procedure: Open TG-GATES - Regimen: Daily Repeat
# Format: toxicity, organism-based, Sprague-Dawley
# Parameters: regimen Daily Repeat, gender Male, age 6 weeks
# Recorded conditions: in vivo, po, 10 mg/kg, […], route gavage, dose level Low, time 14 day
The reply should consist of the numeric value with the unit placed after it.

Could I get TERMINAL_BW for every one of these entries?
1. CC(C)OC(=O)C(C)(C)Oc1ccc(C(=O)c2ccc(Cl)cc2)cc1 [FENOFIBRATE]
2. CC1=C(/C=C/C(C)=C/C=C/C(C)=C/CO)C(C)(C)CCC1

314.5 g
293.8 g

Could I get TERMINAL_BW for every one of these entries?
1. CN(C)CCN(Cc1cccs1)c1ccccn1
2. CN(C)CCCN1c2ccccc2CCc2ccccc21

1. 284.8 g
2. 310.9 g

====

# Species: Rattus norvegicus
# Assay procedure: Open TG-GATES - Regimen: Daily Repeat
# Assay type: toxicity, organism-based, Sprague-Dawley
# Parameters: regimen Daily Repeat, gender Male, age 6 weeks
# Recorded conditions: in vivo, po, 100 mg/kg, […], tissue Plasma, route gavage, dose level Low, time 14 day
Metric: TBIL
Answer as a quantity: numeral, then unit.

- COc1ccc2[nH]c([S+]([O-])Cc3ncc(C)c(OC)c3C)nc2c1 (stereo not given): 0.1 mg/dL
- CCOc1ccc(NC(=O)CC(C)O)cc1 (stereo not given): 0.06 mg/dL
- COC1=CC(=O)C[C@@H](C)[C@]12Oc1c(Cl)c(OC)cc(OC)c1C2=O: 0.2 mg/dL
- CCOC(=O)CCC(=O)O[C@H]1[C@H](O[C@@H]2[C@@H](C)[C@H](O[C@H]3C[C@@](C)(OC)[C@@H](O)[C@H](C)O3)[C@@H](C)C(=O)O[C@H](CC)[C@@](C)(O)[C@H](O)[C@@H](C)C(=O)[C@H](C)C[C@@]2(C)O)O[C@H](C)C[C@@H]1N(C)C [ERYTHROMYCIN ETHYLSUCCINATE]: 0.005 mg/dL

// next entry
Item "NC(N)=Nc1nc(CSCCC(N)=NS(N)(=O)=O)cs1" has what recorded TBIL?
0.2 mg/dL

====

# Species on record: Rattus norvegicus
# Assay procedure: Open TG-GATES - Regimen: Single
# Assay type: toxicity, organism-based, Sprague-Dawley
# Design: regimen Single, gender Male, age 6 weeks
# Recorded conditions: in vivo, po, 10 mg/kg, 24 h, tissue Blood, route gavage, dose level Low
Metric: PT
The reply should consist of the numeric value with the unit placed after it.

Some compounds with recorded PT:
* CN(C)CCN(Cc1cccs1)c1ccccn1 | 16.6 s
* CC1=C(/C=C/C(C)=C/C=C/C(C)=C/CO)C(C)(C)CCC1 | 16.2 s
* CN(C)CCCN1c2ccccc2CCc2ccccc21 | 16.2 s

Now consider the entry below.
Reported PT, compound "CN(C)CCCN1c2ccccc2CCc2ccc(Cl)cc21" : ____
13.7 s

====

# Species on record: Rattus norvegicus
# Assay procedure: Open TG-GATES - Regimen: Single
# Format: toxicity, organism-based, Sprague-Dawley
# Design: regimen Single, gender Male, age 6 weeks
# Recorded conditions: in vivo, po, 10 mg/kg, 9 h, tissue Blood, route gavage, dose level Low
Metric: Plat (x10_4/uL)
Answers are plain numbers, in x10_4/uL.

Below, each entry is followed by its recorded Plat result.
• CN(C)CCN(Cc1cccs1)c1ccccn1 = 114.9
• CN(C)CCCN1c2ccccc2CCc2ccc(Cl)cc21 [CLOMIPRAMINE] = 130.4
• CN(C)CCCN1c2ccccc2CCc2ccccc21 [IMIPRAMINE] = 114.9

As a next step, examine the compound that follows.
What does the data say about its Plat? Entry: CC1=C(/C=C/C(C)=C/C=C/C(C)=C/CO)C(C)(C)CCC1 [RETINOL]
128.6

====

Assignment: determine reported DBIL for the given molecules.
# Organism: Rattus norvegicus
# Assay procedure: Open TG-GATES - Regimen: Daily Repeat
# Assay type: toxicity, organism-based, Sprague-Dawley
# Design: regimen Daily Repeat, gender Male, age 6 weeks
# Recorded conditions: in vivo, po, 100 mg/kg, […], tissue Plasma, route gavage, dose level Low, time 14 day
Value and unit, in that order.

Worked cases, DBIL given:
* COC1=CC(=O)C[C@@H](C)[C@]12Oc1c(Cl)c(OC)cc(OC)c1C2=O [GRISEOFULVIN] | 0.1 mg/dL
* NC(N)=Nc1nc(CSCCC(N)=NS(N)(=O)=O)cs1 [FAMOTIDINE] | 0.096 mg/dL
* COc1ccc2[nH]c([S+]([O-])Cc3ncc(C)c(OC)c3C)nc2c1 (stereo not given) [OMEPRAZOLE] | 0.074 mg/dL
* CCOC(=O)CCC(=O)O[C@H]1[C@H](O[C@@H]2[C@@H](C)[C@H](O[C@H]3C[C@@](C)(OC)[C@@H](O)[C@H](C)O3)[C@@H](C)C(=O)O[C@H](CC)[C@@](C)(O)[C@H](O)[C@@H](C)C(=O)[C@H](C)C[C@@]2(C)O)O[C@H](C)C[C@@H]1N(C)C [ERYTHROMYCIN ETHYLSUCCINATE] | 0 mg/dL

Okay, now this molecule:
Give its DBIL value. Item: CCOc1ccc(NC(=O)CC(C)O)cc1 (stereo not given) [BUCETIN]
0.02 mg/dL

====

# Organism: Rattus norvegicus
# Assay procedure: Open TG-GATES - Regimen: Single
# Format: toxicity, organism-based, Sprague-Dawley
# Design: regimen Single, gender Male, age 6 weeks
# Recorded conditions: in vivo, po, 100 mg/kg, 6 h, tissue Blood, route gavage, dose level High
Metric: PT (s)
Numbers only, in s.

* CC1=C(/C=C/C(C)=C/C=C/C(C)=C/CO)C(C)(C)CCC1 | 15

Give PT for all compounds that follow.
1. CN(C)CCN(Cc1cccs1)c1ccccn1
2. CN(C)CCCN1c2ccccc2CCc2ccccc21
3. CN(C)CCCN1c2ccccc2CCc2ccc(Cl)cc21

[16.6, 15.8, 13.9]

====

Can you tell me Cl for the items I'm about to list?
# Species: Rattus norvegicus
# Assay procedure: Open TG-GATES - Regimen: Single
# Type: toxicity, organism-based, Sprague-Dawley
# Parameters: regimen Single, gender Male, age 6 weeks
# Recorded conditions: in vivo, po, 300 mg/kg, 6 h, tissue Plasma, route gavage, dose level Middle
One number for each entry, in meq/L.

- CCOC(=O)CCC(=O)O[C@H]1[C@H](O[C@@H]2[C@@H](C)[C@H](O[C@H]3C[C@@](C)(OC)[C@@H](O)[C@H](C)O3)[C@@H](C)C(=O)O[C@H](CC)[C@@](C)(O)[C@H](O)[C@@H](C)C(=O)[C@H](C)C[C@@]2(C)O)O[C@H](C)C[C@@H]1N(C)C [ERYTHROMYCIN ETHYLSUCCINATE]: 104
- COC1=CC(=O)C[C@@H](C)[C@]12Oc1c(Cl)c(OC)cc(OC)c1C2=O: 103.2

// each compound listed below needs its Cl
1. NC(N)=Nc1nc(CSCCC(N)=NS(N)(=O)=O)cs1
2. COc1ccc2[nH]c([S+]([O-])Cc3ncc(C)c(OC)c3C)nc2c1 (centres undefined)

103.8
100.8

====

Provide the reported IP of each item.
# Species: Rattus norvegicus
# Assay procedure: Open TG-GATES - Regimen: Daily Repeat
# Assay type: toxicity, organism-based, Sprague-Dawley
# Design: regimen Daily Repeat, gender Male, age 6 weeks
# Recorded conditions: in vivo, po, 1000 mg/kg, 72 h, tissue Plasma, route gavage, dose level High, time 3 day
Give bare numbers, in mg/dL.

• CCOc1ccc(NC(=O)CC(C)O)cc1 (stereo unspecified) = 6.2
• NC(N)=Nc1nc(CSCCC(N)=NS(N)(=O)=O)cs1 = 7.7
• COC1=CC(=O)C[C@@H](C)[C@]12Oc1c(Cl)c(OC)cc(OC)c1C2=O = 7.8
• CC(C)OC(=O)C(C)(C)Oc1ccc(C(=O)c2ccc(Cl)cc2)cc1 [FENOFIBRATE] = 7.3
• COc1ccc2[nH]c([S+]([O-])Cc3ncc(C)c(OC)c3C)nc2c1 (stereo unspecified) = 7.5

// next item, IP requested
Request the reported IP associated with CCOC(=O)CCC(=O)O[C@H]1[C@H](O[C@@H]2[C@@H](C)[C@H](O[C@H]3C[C@@](C)(OC)[C@@H](O)[C@H](C)O3)[C@@H](C)C(=O)O[C@H](CC)[C@@](C)(O)[C@H](O)[C@@H](C)C(=O)[C@H](C)C[C@@]2(C)O)O[C@H](C)C[C@@H]1N(C)C [ERYTHROMYCIN ETHYLSUCCINATE]
7.2
